assay-remarks: qHTS assay to identify small molecule agonists of the progesterone receptor (PR) signaling pathway - cell viability counter screen (AID 1346799); also: nearly all actives have a fitted effect of over 45% in size
experimental-setup: PR-UAS-bla HEK293T viability, CellTiter-Glo luminescence, 16 h; series mostly up to 92.4 µM
Inconclusive results are not listed. Active and inactive are the calls of the source. Calls follow the shape of the full dose curve.
quantity-measured: outcome

CCOCOCC :: inactive
CCCCCCCCCCc1ccccc1 :: inactive
O=C(O)CCn1c2c(c3ccccc31)C[C@H](NS(=O)(=O)c1ccc(F)cc1)CC2 :: inactive
c1ccc(Sc2ccccc2)cc1 :: inactive
CN1CN(C)CN(C)C1 :: inactive
O=C(O)c1cccc(Cl)n1 :: inactive
Cc1cccc(C)n1 :: inactive
COc1ccc(C#N)cc1 :: inactive
CCCC(=O)OCC(COC(=O)CCC)OC(=O)CCC :: inactive
Clc1cc(Cl)c(-c2c(Cl)c(Cl)cc(Cl)c2Cl)cc1Cl :: inactive
CCCCCCCC/C=C/CCCOC(C)=O :: inactive
CC1(C)C(=O)N(Br)C(=O)N1Br :: inactive
CCCCCCCC(=O)OCC :: inactive
COc1cc(C(=O)NS(=O)(=O)c2ccccc2C)ccc1Cc1cn(C)c2ccc(NC(=O)OC3CCCC3)cc12 :: inactive

FYI, the data here is from PubChem BioAssay (Tox21).
